Tested on: CLK3
conditionInfo: concentration: 1 μM, replicates: in singlicate; n = 1;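 further: KINOMEscan kinase panel screen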
In this section we review reported %Inh values for a set of compounds.
Answer format: numeric, % implied, no suffix.

{"smilesEntry": "CN1c2ccc(-c3ccc(C(=O)NCCO)cc3)cc2-c2[nH]ncc2S1(=O)=O", "quantityUnit": "%", "%Inh": 25}
{"smilesEntry": "Cc1ccc(O)cc1Nc1cc(C(F)(F)F)nc2ccc(-c3ccncc3)cc12", "quantityUnit": "%", "%Inh": 0}
{"smilesEntry": "c1ccc(-c2ccc3c(-c4ccnc(Nc5ccc6c(c5)OCCO6)n4)cnn3n2)cc1", "quantityUnit": "%", "%Inh": 0}
{"smilesEntry": "NC(=O)c1sc(-n2cnc3ccccc32)cc1OCc1ccccc1F", "quantityUnit": "%", "%Inh": 0}
{"smilesEntry": "COc1ccc(-c2oc3ncnc(N)c3c2-c2ccc(OC)cc2)cc1", "quantityUnit": "%", "%Inh": 0}
{"smilesEntry": "Fc1ccc(Nc2nccc(-c3c(-c4ccc(Cl)cc4)nn4ncccc34)n2)cc1F", "quantityUnit": "%", "%Inh": 10}

What measured %Inh goes with CCc1nc(-c2cccc(N(C)S(=O)(=O)c3ccccc3)c2)c(-c2ccnc(Nc3ccc(N4CCN(C(C)=O)CC4)nc3)n2)s1 ? 27

Fill blank: measured %Inh of the compound Clc1cccc(-c2nc(Nc3ccncc3)c3ccccc3n2)c1 is ____. 35

###

System: PLK3
conditionInfo: concentration: 1 μM, replicates: in singlicate; n = 1
endpointLabel: %Inh (%)
Numeric only. Scale: %

{"smilesEntry": "O=C(c1ccc(-c2cc(-c3c[nH]nc3-c3ccccn3)ccn2)cc1)N1CCCC1", "%Inh [%]": 12}
{"smilesEntry": "Cc1cccc(-c2nc(Nc3ccc4[nH]nnc4c3)c3ccccc3n2)n1", "%Inh [%]": 0}
{"smilesEntry": "O=C(CCO)NCCn1ccc2ncnc(Nc3ccc(Oc4cccc(C(F)(F)F)c4)c(Cl)c3)c21", "%Inh [%]": 0}

Query (molecule): Fc1cccc(COc2ccc(Nc3ncnc4cc[nH]c34)cc2Cl)c1 ; field requested: %Inh 23

Need %Inh, item CCC(CC)(CC)n1cnc2c(N)ncnc21 21

###

System: AKT3
conditionInfo: concentration: 1 μM, replicates: in singlicate; n = 1
endpointLabel: %Inh (%)
Give the number; % is assumed, so skip it.

Study these solved cases before continuing.
{"molecule": "O=c1cc(N2CCOCC2)nc2n(Cc3cccc(Cl)c3)ccn12", "%Inh [%]": 0}
{"molecule": "Clc1cccc(-c2nc(Nc3ccncc3)c3ccccc3n2)c1", "%Inh [%]": 1}
{"molecule": "COC(=O)c1c(-c2ccccc2)c2cc(Cl)ccc2c(=O)n1Cc1ccc(S(C)(=O)=O)cc1", "%Inh [%]": 0}

Dear colleague, I am looking for the recorded %Inh of the following molecule: Cl.O=S(=O)(c1cccc(F)c1)c1ccc(Nc2ncnc3cc(Br)sc23)cc1Cl 0

Query: %Inh; subject: Nc1nc(-c2ccc3c(N)n[nH]c3c2)cc(N2CCC[C@@H](C(=O)Nc3ccccc3)C2)n1.O=C(O)C(F)(F)F.O=C(O)C(F)(F)F 0

Reported %Inh, molecule CC(C)N1CCC(n2cnc(-c3ccc(F)cc3)c2-c2ccnc(N)n2)CC1 : ____ 0

Look up %Inh for this molecule: COc1ccc(Nc2nccc(N3CCC(NC(=O)Nc4ccc5c(c4)OCO5)C3)n2)cc1 (centres unmarked) 0

Could you tell me which %Inh is on file for Nc1n[nH]c2nnc(-c3ccccc3)cc12 ? 0

Any idea what %Inh was measured for Fc1ccc(Nc2nccc(-c3c(-c4ccc(Cl)cc4)nn4ncccc34)n2)cc1F ? 15

Reported %Inh for Nc1nc(-c2ccc3c(N)n[nH]c3c2)cc(N2CCCCC2)n1 : what is it? 0

I am curious: what %Inh value has been reported for C[C@H]1CC[C@@H](C(=O)Nc2ccccc2)CN1c1cc(-c2ccc3c(N)n[nH]c3c2)nc(N)n1 ? 0
